The measured values listed here are drawn from patent US20220177587A1.

# MEASUREMENT TARGET: huCTLA4 (Homo sapiens, UniProt P16410)
# Sequence (P16410 36-223): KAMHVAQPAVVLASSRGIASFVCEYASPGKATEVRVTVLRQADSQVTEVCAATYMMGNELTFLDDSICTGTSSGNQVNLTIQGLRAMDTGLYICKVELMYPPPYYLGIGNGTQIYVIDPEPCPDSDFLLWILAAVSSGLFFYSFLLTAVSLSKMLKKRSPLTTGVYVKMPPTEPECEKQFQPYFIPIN
# TEST DESCRIPTION: Flow binding to CHO cells stably expressing CTLA4
# Design: huCTLA4 and huPD-L1, full-length mammalian surface expression constructs were generated; expressed in transfected cells; host or cells: CHO cells, lentiviral transduction, sorted to >98% purity
# APPLIED CONDITIONS: Table E23; MFI at 33.3 nM relative to CD80 WT IgV-Fc
QUANTITY MEASURED: CTLA4 Fold change to WT CD80
I only need the number, thanks.

H18L/A26N/D46E/V68M/A71G/D90G (protein, UniProt P33681 35-288, looked up, variant H18L A26N D46E V68M A71G D90G) T-lymphocyte activation …: VIHVTKEVKEVATLSCGLNVSVEELNQTRIYWQKEKKMVLTMMSGEMNIWPEYKNRTIFDITNNLSIMILGLRPSDEGTYECVVLKYEKGAFKREHLAEVTLSVKADFPTPSISDFEIPTSNIRRIICSTSGGFPEPHLSWLENGEELNAINTTVSQDPETELYAVSSKLDFNMTTNHSFMCLIKYGHLRVNQTFNWNTTKQEHFPDNLLPSWAITLISVNGIFVICCLTYCFAPRCRERRRNERLRRESVRPV
12.3

// below: CTLA4 Fold change to WT CD80 requested for another molecule
// returns reported CTLA4 Fold change to WT CD80 for input H18T/A26N/E35D/M47L/V68M/A71G (protein, UniProt P33681 35-288, looked up, variant H18T A26N E35D M47L V68M A71G, Fc fusion) T-lymphocyte activation …: VIHVTKEVKEVATLSCGTNVSVEELNQTRIYWQKDKKMVLTMMSGDLNIWPEYKNRTIFDITNNLSIMILGLRPSDEGTYECVVLKYEKDAFKREHLAEVTLSVKADFPTPSISDFEIPTSNIRRIICSTSGGFPEPHLSWLENGEELNAINTTVSQDPETELYAVSSKLDFNMTTNHSFMCLIKYGHLRVNQTFNWNTTKQEHFPDNLLPSWAITLISVNGIFVICCLTYCFAPRCRERRRNERLRRESVRPV 15.1
